# TEST: soluble on expression in E. coli; label from the status in PepcDB or PDB records
MEASURED_QUANTITY: soluble on expression in E. coli

Known soluble on expression in E. coli results, listed for orientation:
{"SEQUENCE_DATA": "MKCKDDMSAVLTAEQALKLVGEMFVYHMPFNRALGMELERYEKEFAQLAFKNQPMMVGNWAQSILHGGVIASALDVAAGLVCVGSTLTRHETISEDELRQRLSRMGTIDLRVDYLRPGRGERFTATSSLLRAGNKVAVARVELHNEEQLYIASATATYMVGLEHHHHHH", "soluble on expression in E. coli": "soluble"}
{"SEQUENCE_DATA": "MVPLTEENVESVLDEIRPYLMSDGGNVALHEIDGNVVRVKLQGACGSCPSSTMTMKMGIERRLMEKIPEIVAVEALPDEETGLELNEENIEKVLEEIRPYLIGTADGSLDLVEIEDPIVKIRITGPAAGVMTVRVAVTQKLREKIPSIAAVQLI", "soluble on expression in E. coli": "soluble"}
{"SEQUENCE_DATA": "RVLEDLGWYVAHNIPPQIILELIDMCAREDSPVDKVAVVCDVRSREFRGSLTQVVSELRDKQLDPTVLFLEARDEVLIKRFDNVRRTHPLQGSQTLQVGIERERTVLSPVKEDASVVIDTSDLSVHDLRRAIESSFRTIATRTQHVTIESFGFKHGSPRDADFVVDVRFLPNPFWVPELRPFRGVDKPVSDYVLSQKGAEEFLNNFVDMLKDMLPGYRHEGKNFITIGVGCTGGHHRSVAVSEELAKRIADQTTLDVSVVHRDINRH", "soluble on expression in E. coli": "not soluble"}
{"SEQUENCE_DATA": "MSTIHEFPKNYERFIAQGEEALVEHNQIAALENFQQAYQLQQTPPVNQKIVQLLLEMGEADEALALAEAFQESYFENLETAAIYMQIYSQSRRFIEGYILLKQLLQTKKITLAQQKTLEQQLMQVEEAYQQLETQQIQAIKRNLLVSDQLPVYQQLANIKTSLYLPKPVFVEVAKDLVMNQALSYFAREWFIEELALLQFSEPLTFLWYDNQPQTVLLEGKTGPLNTPIYSEICTELRNRLENDDPIMLQHLEEEIRLHLAYLYPLAETVISDPTIWVLGYLATYYPEYIEKELTEAKGHQIDAVQKVQQAIRTAFTQIML", "soluble on expression in E. coli": "soluble"}
{"SEQUENCE_DATA": "MNKEITFDKLPEAVTYLTEQVSAIKEMVSALHPPVPEEKSLIGIDEACVIIQKAKPTIYALVRKGIVPAYKRGKKLYFYKEELLQWVESGRKGATTAISSEEQLAMMRQEVRRKPKSIK", "soluble on expression in E. coli": "not soluble"}

// query soluble on expression in E. coli value for entry MINSVITQMAEELRKASKVALFSHVSPDGDCIGSMLGIGLALEALGKEVAMFNPDPIPRNLSFLPGVDKITQSMPDPLPETLLFVDCADLQRVQLQREDLPADAVILNLDHHISNQNFGRINWVDSQAAASGELAYALVRRLNVELTQEIAANFYTALLTDTGSFKYANTTAKTHQIAGELMETGISLGDIHHFVFDQTPMVKLELLRRGLNQLQFFAEGQLGMMTLRKQDFEESGAEESLSEGLIDHARTVEGVEVAVLLKEVKPDVVRVSLRSNRWFDVNRIADGFGGGGHQRAAGCTLHLSLEEAKQKVRQIIEEELKLGRSHLEHHHHHH
soluble

Ok, now MSLRIIKAGLIGCGNISSIYFENVHRFKHLTIVACADLHLERARAQAEKYRIPKACTVAELLEDPEIELVINLTIPQVHAKVCIQALEAGKHVYTEKPLTITLEEGQKLLEKAKETGLLVGCAPDTFLGAGIQTSIQVIERGEIGTPVGASAFMIGRGHEHWHPDPAFYYDVGGGPMYDMGPYYLTALTALLGPMARVSGSARITYPERTILSEPKKGTKIKVSTPTHISGVIDFANGAIASITTSFDAFGGSVLPPIEVYGSEGTLLVPDPNTFDGPVQLRKRDEREFVEVPLTYHYTENNRGIGVADMAMSLLTGSDYRASGTMGFHVLEAMHGFHMSSTSGHHYQMKSTCRKPEPLPVDFRFSYVETEGHHHHHH
soluble

Ok, now SGGRHIQAIRCWTIWKYMKDYFPISLVKTAELDPSRNYIAGFHPHGVLAVGAFANLCTESTGFSSIFPGIRPHLMMLTLWFRAPFFRDYIMSAGLVTSEKESAAHILNRKGGGNLLGIIVGGAQEALDARPGSFTLLLRNRKGFVRLALTHGAPLVPIFSFGENDLFDQIPNSSGSWLRYIQNRLQKIMGISLPLFHGRGVFQYSFGLIPYRRPITTVVGKPIEVQKTLHPSEEEVNQLHQRYIKELCNLFEAHKLKFNIPADQHLEFC
soluble

Ok, now MHLTREVNIMSILSAVSRVINNFSTEIKNRVVEVGSNLKKSTEEFIGEVVIKAAVNRLKQGMLNALSSSNDTTKDNGNDLSTNSPDIEDVSAPTLSSKKKTEANTTLVGSTGIMQKLLGNIGVNSEQSIEVLSKHFNGAVERFTQDVSKAANEAVCEKIKSIQPEDVVKGINSLIGNTLKVDSESGDTTLSFKLESAVQILGVILAAMGMLMFASQTKSTEQKTLEIEHLPTEEIQPPSLAIH
not soluble

Ok, now MGSDKIHHHHHHQRDLWNIFKLWGWTMLCCDFLAHHGTDCWTYHYSEKPMNWQRARRFCRDNYTDLVAIQNKAEIEYLEKTLPFSRSYYWIGIRKIGGIWTWVGTNKSLTEEAENWGDGEPNNKKNKEDCVEIYIKRNKDAGKWNDDACHKLKAALCYTASCQPWSCSGHGECVEIINNYTCNCDVGYYGPQCQFVIQCEPLEAPELGTMDCTHPLGNFSFSSQCAFSCSEGTNLTGIEETTCGPFGNWSSPEPTCQVIQCEPLSAPDLGIMNCSHPLASFSFTSACTFICSEGTELIGKKKTICESSGIWSNPSPICQKLDKSFSMIKEGDYN
not soluble

Ok, now MEIQDYTDSEFKHALARNLRSLTRGKKSSKQPIAILLGGQSGAGKTTIHRIKQKEFQGNIVIIDGDSFRSQHPHYLELQQEYGKDSVEYTKDFAGKMVESLVTKLSSLGYNLLIEGTLRTVDVPKKTAQLLKNKGYEVQLALIATKPELSYLSTLIRYEELYIINPNQARATPKEHHDFIVNHLVDNTRKLEELAIFERIQIYQRDRSCVYDSKENTTSAADVLQELFFGEWSQVEKEMLQVGEKRLNELLEK
soluble

Just for reference, the DeepSol protein solubility set is where these values come from.
